- assayNotes: Kinetic solubility by UV spectrometry in 10 mM PBS
- Format: physicochemical
- conditions: 10 mM phosphate buffered saline, aqueous buffer, kinetic from dmso stock
quantityMeasured: solubility at 2 h (µg/mL)
Numbers only, in µg/mL.

Some solved entries appear below for comparison.
>>> endpointresult("O=C(/C=C(O)/C=C/c1ccc(O)c(F)c1F)C(F)(F)F")
298
>>> endpointresult("COc1cc(/C=C/C(=O)CC(=O)/C=C/c2ccc(O)c(OC)c2)ccc1O [Curcumin, reference compound]")
24

Moving on to the next compound.
Item under review: O=C(/C=C(O)/C=C/c1cc(F)c(O)cc1F)C(F)(F)F . Reported solubility at 2 h?
281
